assay.explanation: folding enthalpy; higher = less favourable; fluorescence melt of hairpins on a sequencing array, two-state fit
condition.notes: sodium 0.088 M
What folding enthalpy was measured for each of the following?
Give bare numbers, in kcal/mol.

query: Recall and state the measured folding enthalpy for GCCCACGAAAGTGCCGGC ((((((....)))..))) .
result: -16.1

query: Recall and state the measured folding enthalpy for GTTAGCGCGAAAGCGAAC (((..(((....)))))) .
result: -6.83

# batch: return folding enthalpy for each of the 2 sequences below
1. GAGGAGGGAAACTTCCTC (((((.(....).)))))
2. GGGCTCGAAAGAGGCCCC ((((((....)))..)))

result:
1. -25.6
2. -12.3

----------
What folding enthalpy was measured for each of the following?
assay.explanation: folding enthalpy; higher = less favourable; fluorescence melt of hairpins on a sequencing array, two-state fit
condition.notes: sodium 0.088 M
Give bare numbers, in kcal/mol.

query: Recall and state the measured folding enthalpy for GTTTACCGAAAGGTGAAC (((.(((....))).))) .
result: -33

query: Recall and state the measured folding enthalpy for GTCTGGCGAAAGCCTGAC (((.(((....))).))) .
result: -26.8

query: Recall and state the measured folding enthalpy for GATCGTACCAACGATC ((((((....)))))) .
result: -36.7

query: Recall and state the measured folding enthalpy for GTCACCCGAAAGGGAGAC (((.(((....))).))) .
result: -33.6

query: Recall and state the measured folding enthalpy for GGGGGCGAAAGCCCTCCC ((((((....)))..))) .
result: -9.75

# batch: return folding enthalpy for each of the 6 sequences below
1. GCATGGGGAAACCCGTGC (((.(((....))).)))
2. GGATACACGAAAGTGTCC (((..(((....))))))
3. GCGCTCGAAAGAGTCGC ((((((....))).)))
4. GCGGGCGAAAGCCGCCGC ((((((....)))..)))
5. GTGACGCGAAAGCGCCAC (((.(((....))).)))
6. GGTTTAGGAAACTAAATC (.(((((....))))).)

result:
-47.5
-12
-30.6
-11.3
-33.9
-22.2

----------
assay.explanation: melting temperature; fluorescence melt of hairpins on a sequencing array, two-state fit, raised by 9.35 °C to match UV melts
condition.notes: sodium 0.088 M
attribute.measured: Tm (°C)
Give bare numbers, in °C.

# annotated cases, reported Tm shown
query: Recall and state the measured Tm for GTGAAGAAATTCAC (((((....))))) .
result: 38.3

query: Recall and state the measured Tm for GCTATCGAAAGATGAAGC ((((((....)))..))) .
result: 32.8

query: Recall and state the measured Tm for GGAGCCGAAAGGCTCTCC ((((((....)))..))) .
result: 56.5

---
query: Recall and state the measured Tm for GATCACTGACGTGATC ((((((....)))))) .
result: 54.3

----------
assay.explanation: melting temperature; fluorescence melt of hairpins on a sequencing array, two-state fit, raised by 9.35 °C to match UV melts
condition.notes: sodium 0.088 M
Rule: Tm under 50 °C gives class 0, otherwise class 1.

query: hey, is Tm for this one >= 50 °C? GTCCCGCGAAAGCGAGAC (((.(((....))).)))
result: class 1

query: hey, is Tm for this one >= 50 °C? GCCAATACGAAAGTAGGC (((..(((....))))))
result: class 0

query: hey, is Tm for this one >= 50 °C? GTTAGGGGAAACCCCAAC (((.(((....))).)))
result: class 0

query: hey, is Tm for this one >= 50 °C? GGATAGCGAAAGCTGTCC (((.(((....))).)))
result: class 1

query: hey, is Tm for this one >= 50 °C? GGGCCGTCGAAAGACCCC (((..(((....))))))
result: class 0

query: hey, is Tm for this one >= 50 °C? GGTACGCGAAAGCGAACC (((.(((....))).)))
result: class 1
